The origin of these recorded values is ChEMBL document CHEMBL4130375.

pIC50: −log10 of the molar value.
Property measured: pIC50

Q: Provide the documented pIC50 with UniProtKB P33261 as the system for Cc1cccc2c(Nc3cccc(-c4nc5c(C(N)=O)cccc5[nH]4)c3)c3ccccc3nc12
Sequence (P33261 whole entry): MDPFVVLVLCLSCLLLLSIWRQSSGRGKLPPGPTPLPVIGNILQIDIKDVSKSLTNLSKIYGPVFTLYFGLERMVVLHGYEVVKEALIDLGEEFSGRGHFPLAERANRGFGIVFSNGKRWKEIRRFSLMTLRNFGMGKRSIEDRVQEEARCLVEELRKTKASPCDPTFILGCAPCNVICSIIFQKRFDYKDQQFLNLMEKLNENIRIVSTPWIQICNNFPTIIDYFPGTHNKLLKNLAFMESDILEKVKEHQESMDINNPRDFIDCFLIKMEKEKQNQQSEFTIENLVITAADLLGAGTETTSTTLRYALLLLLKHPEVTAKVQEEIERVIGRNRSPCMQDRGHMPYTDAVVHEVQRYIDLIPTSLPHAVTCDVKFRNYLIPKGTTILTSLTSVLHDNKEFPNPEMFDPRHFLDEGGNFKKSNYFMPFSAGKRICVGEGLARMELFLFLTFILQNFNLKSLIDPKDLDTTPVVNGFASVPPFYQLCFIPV
Ans: < 5.00

---

# Experimental details: Intrinsic clearance in rat liver microsomes at 1.11 uM preincubated for 5 mins followed by NADPH addition by LC-MS/MS analysis
# Format: ADME, microsome
# Applied conditions: read-out: CLH
Property measured: microsomal CLint at 1.11 µM
Please state the value followed by its unit.

Q: Requested read-out: microsomal CLint at 1.11 µM. Entry: Cc1cccc2c(Nc3cccc(-c4nc5c(C(N)=O)cccc5[nH]4)c3)c3ccccc3nc12
Ans: 28.4 µL/min/mg

---

# Experimental details: Half life in rat liver microsomes at 1.11 uM preincubated for 5 mins followed by NADPH addition by LC-MS/MS analysis
# Type: ADME, microsome
Property measured: half-life at 1.11 µM (min)
Output spec: scalar in min, unitless text.

Q: Requested read-out: half-life at 1.11 µM. Entry: Cc1cccc2c(Nc3cccc(-c4nc5c(C(N)=O)cccc5[nH]4)c3)c3ccccc3nc12
Ans: 34.8

---

Entries with reported pIC50 on UniProtKB P09874
Sequence (P09874 whole entry): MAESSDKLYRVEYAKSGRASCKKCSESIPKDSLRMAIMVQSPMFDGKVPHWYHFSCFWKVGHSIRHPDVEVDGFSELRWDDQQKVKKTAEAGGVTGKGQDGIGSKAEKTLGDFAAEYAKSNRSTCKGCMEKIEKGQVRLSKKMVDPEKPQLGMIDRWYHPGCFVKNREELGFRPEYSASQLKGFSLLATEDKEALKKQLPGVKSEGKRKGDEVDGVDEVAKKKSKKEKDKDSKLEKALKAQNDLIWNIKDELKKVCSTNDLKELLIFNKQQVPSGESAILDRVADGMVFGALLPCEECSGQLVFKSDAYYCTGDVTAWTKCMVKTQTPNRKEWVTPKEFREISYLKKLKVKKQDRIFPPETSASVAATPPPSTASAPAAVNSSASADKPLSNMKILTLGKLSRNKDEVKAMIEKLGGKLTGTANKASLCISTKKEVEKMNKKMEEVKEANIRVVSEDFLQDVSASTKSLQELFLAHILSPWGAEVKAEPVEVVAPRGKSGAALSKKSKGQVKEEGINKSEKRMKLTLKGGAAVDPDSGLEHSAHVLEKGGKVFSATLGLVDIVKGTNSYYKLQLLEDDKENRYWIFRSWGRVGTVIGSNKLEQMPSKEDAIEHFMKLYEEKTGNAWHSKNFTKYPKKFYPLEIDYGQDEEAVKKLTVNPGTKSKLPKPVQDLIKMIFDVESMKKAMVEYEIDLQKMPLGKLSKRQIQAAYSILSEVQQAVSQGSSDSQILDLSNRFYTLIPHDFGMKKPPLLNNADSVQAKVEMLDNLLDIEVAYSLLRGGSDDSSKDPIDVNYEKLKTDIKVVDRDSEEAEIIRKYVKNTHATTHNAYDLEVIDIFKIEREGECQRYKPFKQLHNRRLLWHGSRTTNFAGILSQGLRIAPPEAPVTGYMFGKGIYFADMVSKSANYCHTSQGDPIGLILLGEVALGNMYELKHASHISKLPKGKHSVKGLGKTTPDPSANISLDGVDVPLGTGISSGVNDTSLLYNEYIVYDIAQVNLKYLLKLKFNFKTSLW
In plain terms, pIC50 is the concentration in mol/L turned into minus its base-10 logarithm.

Q: Requested read-out: pIC50. Entry: NC(=O)c1cccc2[nH]c(-c3cccc(Nc4c5ccccc5nc5ccccc45)c3)nc12
Ans: 5.86

Q: Requested read-out: pIC50. Entry: COc1cccc2c(Nc3cccc(-c4nc5c(C(N)=O)cccc5[nH]4)c3)c3ccccc3nc12
Ans: 6.01

Q: Requested read-out: pIC50. Entry: Cc1cccc2c(Nc3cccc(-c4nc5c(C(N)=O)cccc5[nH]4)c3)c3ccccc3nc12
Ans: 6.35

Q: Requested read-out: pIC50. Entry: CCCCc1ccc2nc3ccccc3c(Nc3ccc(-c4nc5c(C(N)=O)cccc5[nH]4)cc3)c2c1
Ans: 6.89

Q: Requested read-out: pIC50. Entry: NC(=O)c1cccc2[nH]c(-c3cccc(N)c3)nc12
Ans: 7.52

Q: Requested read-out: pIC50. Entry: NC(=O)c1cccc2[nH]c(-c3ccccc3Nc3c4ccccc4nc4ccccc34)nc12
Ans: 5.70

Q: Requested read-out: pIC50. Entry: COc1ccc2nc3ccccc3c(Nc3cccc(-c4nc5c(C(N)=O)cccc5[nH]4)c3)c2c1
Ans: 5.94

Q: Requested read-out: pIC50. Entry: Cc1ccc2nc3ccccc3c(Nc3cccc(-c4nc5c(C(N)=O)cccc5[nH]4)c3)c2c1
Ans: 6.29

---

# Experimental details: Half life in human liver microsomes at 1.11 uM preincubated for 5 mins followed by NADPH addition by LC-MS/MS analysis
# Assay type: ADME, microsome
Property measured: half-life at 1.11 µM (min)
Output spec: scalar in min, unitless text.

Q: Requested read-out: half-life at 1.11 µM. Entry: Cc1cccc2c(Nc3cccc(-c4nc5c(C(N)=O)cccc5[nH]4)c3)c3ccccc3nc12
Ans: 27.8

---

# Experimental details: Intrinsic clearance in human liver microsomes at 1.11 uM preincubated for 5 mins followed by NADPH addition by LC-MS/MS analysis
# Assay type: ADME, microsome
# Applied conditions: read-out: CLH
Property measured: microsomal CLint at 1.11 µM (µL/min/mg)
Output spec: scalar in µL/min/mg, unitless text.

Q: Requested read-out: microsomal CLint at 1.11 µM. Entry: Cc1cccc2c(Nc3cccc(-c4nc5c(C(N)=O)cccc5[nH]4)c3)c3ccccc3nc12
Ans: 35.6

---

# System: Cytochrome P450 2D6 (Homo sapiens)
# Sequence (P10635 whole entry): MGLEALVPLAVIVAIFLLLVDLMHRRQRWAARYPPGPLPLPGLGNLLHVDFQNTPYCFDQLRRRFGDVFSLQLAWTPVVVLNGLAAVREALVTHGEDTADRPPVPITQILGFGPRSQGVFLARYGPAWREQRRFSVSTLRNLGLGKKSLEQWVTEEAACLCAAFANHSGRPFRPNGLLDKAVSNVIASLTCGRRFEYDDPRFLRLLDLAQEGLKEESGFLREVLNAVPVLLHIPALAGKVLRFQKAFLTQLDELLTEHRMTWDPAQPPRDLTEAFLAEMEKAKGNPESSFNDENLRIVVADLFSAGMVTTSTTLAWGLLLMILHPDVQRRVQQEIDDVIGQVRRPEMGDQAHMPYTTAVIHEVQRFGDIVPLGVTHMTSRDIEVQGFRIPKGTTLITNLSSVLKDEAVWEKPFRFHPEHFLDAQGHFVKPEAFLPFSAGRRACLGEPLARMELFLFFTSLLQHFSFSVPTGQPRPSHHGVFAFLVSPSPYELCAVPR
Property measured: IC50

Q: Requested read-out: IC50. Entry: Cc1cccc2c(Nc3cccc(-c4nc5c(C(N)=O)cccc5[nH]4)c3)c3ccccc3nc12
Ans: > 10 µM
